assayProcedure: small-molecule microarray binders of probe aLefty2, primary screen, biochemical, biotinylated probe, 635/667 nm fluorescence (AID 1094);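 further: score merges spot fluorescence near 667 nm with spot signal-to-noise ratio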
assayConditions: higher = more signal
resultType: composite z-score

compound=COC(=O)[C@H]1N=C(c2ccc(OCCCO)cc2)O[C@H]1c1ccccc1N=[N+]=[N-] obsvalue=0.588
compound="CCCCCN1CC=CC23O[C@@H]4/C=C\\CCCOC(=O)C4[C@H]2C(=O)N(CCO)[C@@H]3C1=O (some centres not stated)" obsvalue=-0.134
compound=COCCOC(=O)N1C(=O)[C@@]2(c3cc(C#CCCO)ccc31)[C@H](C(=O)N1CCN(c3ncccn3)CC1)[C@H]1C(=O)O[C@H](c3ccccc3)[C@H](c3ccccc3)N1[C@@H]2c1ccc(OCCO)cc1 obsvalue=-0.025
compound=CCCCC(=C=CC[C@H](O)c1cccc(OCCO)c1)C[C@H](O)c1cc(Cl)cc(Cl)c1O obsvalue=0.206
compound="CC[C@H]1C2=C3C(CC[C@H]4C(OCc5ccc(F)cc5C(F)(F)F)OC[C@](C)([C@@H]34)N(C(=O)OC(C)(C)C)C2)C(COC(C)=O)C1COC(C)=O (some centres not stated)" obsvalue=0.0909
compound=C=C(/C=C\CNS(=O)(=O)c1ccc(C)cc1)[C@H](O)[C@H]1CCCN1S(=O)(=O)c1ccccc1[N+](=O)[O-] obsvalue=-0.139
compound=[N-]=[N+]=Nc1ccccc1C[C@@]1(C(=O)NCc2ccccc2)N=C(c2ccc(OCCCO)cc2)O[C@@H]1c1ccccc1 obsvalue=0.271

---

targetUnderTest: Left-right determination factor 2 (Homo sapiens)
assayProcedure: LEFTY2 binders on small-molecule microarrays, primary screen, biochemical, small-molecule microarray, 635 nm fluorescence scan (AID 1110)
assayConditions: LEFTY2 binding, higher = more signal
resultType: composite z-score

querysmiles=COc1ccc(C#Cc2ccc3c(c2)[C@]2(C(=O)N3)[C@H](c3ccccc3OCCO)N3[C@H](c4ccccc4)[C@H](c4ccccc4)OC(=O)[C@H]3[C@@H]2C(=O)NC[C@H](O)c2ccccc2)cc1 obsvalue=1.02
querysmiles=CCOC(=O)C[C@H]1[C@H](OC(=O)c2cc3ccccc3oc2=O)[C@@H](NC(=O)c2ccc(-c3ccccc3)cc2)c2cc(OCCCO)ccc2N1C(=O)Cc1ccc(OC)cc1 obsvalue=0.497
querysmiles=COc1ccc(CCNC(=O)[C@@]2(C)c3ccccc3C(=O)N(Cc3ccc(OC(F)(F)F)cc3)[C@H]2c2ccc(CO)cc2)cc1 obsvalue=0.243

---

assayProcedure: CREB reporter modulators under forskolin, primary screen, cell-based, PC12, CRE-LacZ reporter, forskolin-stimulated (AID 1146);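 further: PC12 cells with 6xCRE LacZ reporter stimulated by forskolin 10 µM; beta-galactosidase reporter signal reflecting CREB driven transcription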
assayConditions: luminescence, 4.5 h, higher = more signal, called active from +8 up or from −8 down
The source made the active and inactive calls.
Reported z-score values for a set of compounds
resultType: z-score

compound=CC(C)C[C@@H]1NC(=O)[C@H]2C[C@@H](C(=O)O)[C@@H](c3cccc(OCCO)c3)N2C1=O obsvalue="-0.411 (inactive)"
compound="COC(=O)C1=CC(CCCO)=CC(c2ccc(CN3CCCC3)cc2)N(C)C=C1C(=O)OC (stereo not given)" obsvalue="-0.0736 (inactive)"
compound=CCOC(=O)C[C@H]1[C@H](OC(=O)c2cc3ccccc3oc2=O)[C@@H](NC(=O)Cc2ccc(OC)cc2)c2cc(OCCCO)ccc2N1C(=O)Cc1ccc(OC)cc1 obsvalue="-1.59 (inactive)"
compound=O=C(NC1CC1)[C@@H]1c2ccccc2C(=O)N(C2CCCCC2)[C@H]1c1ccc(CO)cc1 obsvalue="-0.592 (inactive)"
compound="O=C1NC(=O)C2C1C=CC(C(O)C(c1ccccc1)c1ccccc1)N2Nc1ccccn1 (stereo not given)" obsvalue="-0.804 (inactive)"
compound=COC(=O)C(CC#Cc1ccc2c(c1)[C@]1(C(=O)N2)[C@H](C(=O)NC[C@H](O)c2ccccc2)[C@H]2C(=O)O[C@H](c3ccccc3)[C@H](c3ccccc3)N2[C@@H]1c1ccc(O)cc1)C(=O)OC obsvalue="-0.517 (inactive)"
compound=C=CCOC(=O)[C@H]1[C@@H]2C(=O)O[C@@H](c3ccccc3)[C@@H](c3ccccc3)N2[C@@H](c2ccc(OCCOC(=O)[C@H]3C[C@H]4C(=O)NCC(=O)N4[C@H]3c3ccc(O)cc3)cc2)[C@]12C(=O)Nc1ccccc12 obsvalue="-0.306 (inactive)"
compound="C=CCC(OC(C)=O)[C@@H]1[C@@H](N(Cc2ccc(-c3ccccc3)cc2)C(=O)Cc2ccc(OC)cc2)c2cc(OCCCO)ccc2N1C(=O)c1ccc2ccccc2c1 (stereo not given in full)" obsvalue="0.385 (inactive)"
compound="O=C1NC(=O)C2C1C=CC(C(O)C(O)CO)N2Nc1ccccn1 (stereo not given)" obsvalue="0.0702 (inactive)"
compound=O=C(NCC(F)(F)F)[C@@H]1c2ccccc2C(=O)N(Cc2cc(C(F)(F)F)cc(C(F)(F)F)c2)[C@H]1c1ccc(CO)cc1 obsvalue="-1 (inactive)"
compound=COCCCNC(=O)[C@@]1(CCC(=O)OC(C)(C)C)N=C(c2ccc(OCCCO)cc2)O[C@H]1c1ccccc1 obsvalue="-0.391 (inactive)"
compound="CS(=O)(=O)CCOC(=O)C1=CC(CCCO)=CC(C2CC2)N(Cc2sc3ccccc3c2Cl)C=C1C(=O)OCCS(C)(=O)=O (stereo not given)" obsvalue="-0.655 (inactive)"
compound=O=C/C=C/c1ccc(-c2ccccc2)cc1 obsvalue="3.74 (inactive)"
compound="O=C1OCCC/C=C\\[C@H]2OC34C=CCN(Cc5ccccc5)C(=O)[C@H]3N(CCO)C(=O)[C@@H]4C12 (stereo not given in full)" obsvalue="-0.0501 (inactive)"
compound="C=CCC(OC(C)=O)[C@@H]1[C@@H](N(Cc2ccc(-c3ccccc3)cc2)C(=O)Cc2ccc(OC)cc2)c2cc(OCCCO)ccc2N1C(=O)Cc1ccc(OC)cc1 (stereo not given in full)" obsvalue="0.482 (inactive)"
compound="CCCCN1CC=CC23O[C@@H]4C=CCCOC(=O)C4[C@H]2C(=O)N(CCO)[C@@H]3C1=O (stereo not given in full)" obsvalue="-0.34 (inactive)"
compound=Cc1ccc(S(=O)(=O)N2[C@@H](c3ccccc3)C(C(=O)O)=CC[C@H]2c2ccc(F)cc2)cc1 obsvalue="0.398 (inactive)"
compound=COc1cc(Cc2cc3c(c(CCc4ccccc4)n2)[Si](C(C)C)(C(C)C)O[C@H]3c2ccccc2)cc(OC)c1OC obsvalue="0.992 (inactive)"
compound=[N-]=[N+]=NCc1ccccc1C[C@@]1(C(N)=O)N=C(c2ccc(OCCCO)cc2)O[C@@H]1c1ccccc1N=[N+]=[N-] obsvalue="-0.626 (inactive)"
compound=COC(=O)c1c2oc(c1C(=O)OC)C(=O)N[C@H](Cc1ccccc1)Cn1cc(nn1)C1(CCCCC1)NC(=O)N[C@H](CO)CC2 obsvalue="0.334 (inactive)"
compound=O=C1O[C@H](c2ccccc2)[C@H](c2ccccc2)N2[C@H]1[C@@H](C(=O)N1CCCCCCC1)[C@]1(C(=O)Nc3ccc(C#CCCO)cc31)[C@H]2c1ccc(O)cc1 obsvalue="-1.23 (inactive)"
compound=COc1cc(Cc2cc3c(c(-c4ccccc4)n2)[Si](C(C)C)(C(C)C)OC3)cc(OC)c1OC obsvalue="-0.437 (inactive)"
compound="CC(C)c1ccc(NN2C(C(O)C3=C[C@H]4C[C@@H](C3)C4(C)C)C=CC3C(=O)N(c4ccccc4)C(=O)C32)cc1 (stereo not given in full)" obsvalue="0.551 (inactive)"
compound="COc1cc2c(cc1O)C(C)N(Cc1sc3ccccc3c1Cl)CC2 (stereo not given)" obsvalue="-0.487 (inactive)"
compound=CCCCC=C[C@@H](NC(=O)C(C)(C)C)c1ccccc1 obsvalue="1.67 (inactive)"
compound=C=CCNC(=O)[C@H]1[C@@H]2C(=O)O[C@@H](c3ccccc3)[C@@H](c3ccccc3)N2[C@@H](c2ccc(OCCO)cc2)[C@]12C(=O)N(C(=O)OCCOC)c1ccc(C#CCC(C(=O)OC)C(=O)OC)cc12 obsvalue="-0.228 (inactive)"
compound="CC(CO)N1C(=O)[C@@H]2[C@H]3C(=O)OCC=C[C@H]3OC23C=CCN(c2ccc4ccccc4c2)C(=O)[C@@H]13 (stereo not given in full)" obsvalue="-0.702 (inactive)"
compound=C=C(COC)C(=O)CC[C@H](OC(C)=O)c1ccccc1OCCO obsvalue="4.62 (inactive)"
compound=C=CC[C@]12N=C(c3ccc(OCCCO)cc3)O[C@H]1c1ccccc1N(CCC)C2=O obsvalue="-0.743 (inactive)"
compound=COc1ccc(CCNC(=O)[C@@H]2c3ccccc3C(=O)N(C(C)C)[C@H]2c2ccc(CO)cc2)cc1 obsvalue="-0.859 (inactive)"
